TEST TARGET: Neu5Ac(a2-3)Gal(b1-3)GlcNAc(b1-3)GalNAc
ASSAY PROTOCOL: glycan array binding signal (z-score within array); higher = stronger binding
SETUP CONDITIONS: glycan notation: IUPAC condensed, linker removed
Many of the other results were omitted from the sample, so the strongest signals are more common in it than they were.
OUTCOME MEASURE: glycan array binding signal (z-score)
I'd appreciate a reply containing only the number, no unit.

Can you share its glycan array binding signal (z-score)? I mean this binder: Epa7 (Candida glabrata), Q6DTM6_CANGB (protein) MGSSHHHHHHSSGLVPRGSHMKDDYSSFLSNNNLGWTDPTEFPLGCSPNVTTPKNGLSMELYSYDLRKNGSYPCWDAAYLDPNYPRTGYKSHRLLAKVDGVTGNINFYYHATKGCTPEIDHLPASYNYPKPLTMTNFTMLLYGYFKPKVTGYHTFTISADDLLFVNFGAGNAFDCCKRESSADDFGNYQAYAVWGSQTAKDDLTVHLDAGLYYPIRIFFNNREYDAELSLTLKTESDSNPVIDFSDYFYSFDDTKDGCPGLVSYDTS
-0.21
